Reference source: ChEMBL document CHEMBL1138107

# system: UniProt:P0C1P9
# Sequence (P0C1P9 whole entry): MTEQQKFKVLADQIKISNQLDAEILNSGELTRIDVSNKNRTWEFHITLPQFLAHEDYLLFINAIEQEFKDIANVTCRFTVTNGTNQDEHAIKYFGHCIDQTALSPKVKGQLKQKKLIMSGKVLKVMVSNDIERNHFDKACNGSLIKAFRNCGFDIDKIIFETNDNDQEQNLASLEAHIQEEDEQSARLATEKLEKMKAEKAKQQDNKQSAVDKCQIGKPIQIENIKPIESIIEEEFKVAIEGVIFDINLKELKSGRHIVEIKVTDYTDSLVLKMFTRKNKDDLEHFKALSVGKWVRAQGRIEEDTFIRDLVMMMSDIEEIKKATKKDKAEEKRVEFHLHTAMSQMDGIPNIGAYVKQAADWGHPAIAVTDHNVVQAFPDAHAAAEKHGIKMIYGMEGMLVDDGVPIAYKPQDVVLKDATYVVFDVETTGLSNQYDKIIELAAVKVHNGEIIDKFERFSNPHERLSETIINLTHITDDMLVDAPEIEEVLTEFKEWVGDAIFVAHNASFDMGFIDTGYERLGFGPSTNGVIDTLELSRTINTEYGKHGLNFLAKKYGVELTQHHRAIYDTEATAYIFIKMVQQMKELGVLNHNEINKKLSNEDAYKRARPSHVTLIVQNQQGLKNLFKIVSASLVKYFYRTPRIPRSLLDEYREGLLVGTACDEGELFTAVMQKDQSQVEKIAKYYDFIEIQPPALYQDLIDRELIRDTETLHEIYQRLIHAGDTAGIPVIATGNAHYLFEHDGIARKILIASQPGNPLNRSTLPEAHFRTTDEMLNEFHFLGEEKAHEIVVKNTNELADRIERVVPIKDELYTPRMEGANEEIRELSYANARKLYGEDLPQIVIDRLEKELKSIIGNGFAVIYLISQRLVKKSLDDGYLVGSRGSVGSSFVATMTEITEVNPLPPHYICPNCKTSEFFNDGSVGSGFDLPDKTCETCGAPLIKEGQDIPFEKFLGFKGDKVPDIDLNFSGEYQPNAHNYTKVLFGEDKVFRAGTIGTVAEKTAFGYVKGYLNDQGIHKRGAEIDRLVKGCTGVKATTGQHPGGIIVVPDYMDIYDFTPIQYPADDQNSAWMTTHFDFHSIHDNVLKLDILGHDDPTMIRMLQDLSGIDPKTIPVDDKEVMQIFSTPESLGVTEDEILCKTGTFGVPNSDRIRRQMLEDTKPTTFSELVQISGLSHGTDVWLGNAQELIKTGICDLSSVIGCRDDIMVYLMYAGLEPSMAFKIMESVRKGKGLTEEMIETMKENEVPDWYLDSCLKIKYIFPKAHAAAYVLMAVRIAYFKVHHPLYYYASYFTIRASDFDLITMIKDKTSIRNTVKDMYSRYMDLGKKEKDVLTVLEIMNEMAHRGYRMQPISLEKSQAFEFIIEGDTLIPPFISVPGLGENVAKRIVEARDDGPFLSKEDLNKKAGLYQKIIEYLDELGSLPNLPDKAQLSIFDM
# assay.procedure: Inhibition of DNA polymerase3C from Staphylococcus aureus
measure.name: IC50 (µM)
Number only, in µM; omit the unit.

C=CCc1c(O)nc(Nc2ccc(C)c(CC)c2)[nH]c1=O :: 7.7
COc1ccc(OCCCc2c(O)nc(Nc3ccc4c(c3)CCC4)[nH]c2=O)cc1 :: 11.6

# ---- query compound ----
get_value(item= Nc1ccc(OCCCc2c(O)nc(Nc3ccc4c(c3)CCC4)[nH]c2=O)cc1 , readout=IC50) returns 9
